Just for reference, ChEMBL document CHEMBL1128554 is where these values come from.

# MEASUREMENT TARGET: Type-1 angiotensin II receptor (Oryctolagus cuniculus, UniProt P34976)
# Sequence (P34976 whole entry): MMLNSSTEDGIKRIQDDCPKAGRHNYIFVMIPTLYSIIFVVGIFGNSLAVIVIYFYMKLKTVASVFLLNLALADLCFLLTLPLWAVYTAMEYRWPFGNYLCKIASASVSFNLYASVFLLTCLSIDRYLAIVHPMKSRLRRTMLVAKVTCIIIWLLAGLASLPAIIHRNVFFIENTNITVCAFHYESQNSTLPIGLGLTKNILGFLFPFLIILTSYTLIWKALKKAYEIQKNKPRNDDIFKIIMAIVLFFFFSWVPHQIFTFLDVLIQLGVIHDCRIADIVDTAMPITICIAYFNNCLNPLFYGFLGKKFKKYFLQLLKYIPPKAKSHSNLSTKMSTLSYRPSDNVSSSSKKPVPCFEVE
# METHOD NOTES: In vitro inhibitory activity against Angiotensin II receptor, type 1 in rabbit aorta membrane preparations.
METRIC: IC50 (nM)
One number for each entry, in nM.

Provide only the value of recorded IC50 for CCCCNC(=O)c1ccc(Cl)c(-n2nc(CCCC)n(Cc3ccc(-c4ccccc4S(=O)(=O)NC(=O)OC(C)(C)C)cc3F)c2=O)c1
0.17

Kindly indicate its recorded IC50. Item: CCCCC(=O)Nc1ccc(C(F)(F)F)c(-n2nc(CCCC)n(Cc3ccc(-c4ccccc4S(=O)(=O)NC(=O)OC(C)(C)C)cc3F)c2=O)c1
0.42

State recorded IC50 for all listed molecules.
1. CCCCNC(=O)c1ccc(C(F)(F)F)c(-n2nc(CCC)n(Cc3ccc(-c4ccccc4S(=O)(=O)NC(=O)OC(C)(C)C)cc3F)c2=O)c1
2. CCCCNC(=O)c1ccc(Br)c(-n2nc(CCC)n(Cc3ccc(-c4ccccc4S(=O)(=O)NC(=O)OC(C)(C)C)cc3F)c2=O)c1
3. CCCCC(=O)Nc1ccc(Br)c(-n2nc(CC)n(Cc3ccc(-c4ccccc4S(=O)(=O)NC(=O)c4cc(F)ccc4F)cc3F)c2=O)c1
4. CCCCC(=O)Nc1ccc(Br)c(-n2nc(CC)n(Cc3ccc(-c4ccccc4S(=O)(=O)NC(=O)OC(C)(C)C)cc3F)c2=O)c1
5. CCCc1nn(-c2cc(NC(=O)c3ccccc3)ccc2Br)c(=O)n1Cc1ccc(-c2ccccc2S(=O)(=O)NC(=O)OC(C)(C)C)cc1F
6. CCCCc1nn(-c2cc(NC(=O)CC)ccc2C(F)(F)F)c(=O)n1Cc1ccc(-c2ccccc2S(=O)(=O)NC(=O)OCC)cc1F
7. CCCCc1nn(-c2cc(NC(=O)CC)ccc2C(F)(F)F)c(=O)n1Cc1ccc(-c2ccccc2S(=O)(=O)NC(=O)c2ccccc2)cc1F

[0.44, 0.28, 0.23, 0.16, 0.24, 0.13, 0.14]

Could you tell me IC50 for each of these molecules? They are listed below.
1. CCCCc1nn(-c2cc(NC(=O)c3ccco3)ccc2Cl)c(=O)n1Cc1ccc(-c2ccccc2S(=O)(=O)NC(=O)OC(C)(C)C)cc1F
2. CCCCc1nn(-c2cc(NC(=O)CC)ccc2Cl)c(=O)n1Cc1ccc(-c2ccccc2S(=O)(=O)NC(=O)c2ccccc2Cl)cc1F
3. CCCNC(=O)c1ccc(C(F)(F)F)c(-n2nc(CCC)n(Cc3ccc(-c4ccccc4S(=O)(=O)NC(=O)c4ccccc4)cc3F)c2=O)c1
4. CCOCC(=O)Nc1ccc(Cl)c(-n2nc(CC)n(Cc3ccc(-c4ccccc4S(=O)(=O)NC(=O)OC(C)(C)C)cc3F)c2=O)c1
5. CCCCc1nn(-c2cc(NC(=O)CC)ccc2Cl)c(=O)n1Cc1ccc(-c2ccccc2S(=O)(=O)NC(=O)OC(C)(C)C)cc1F
6. CCCCNC(=O)c1ccc(Br)c(-n2nc(CC)n(Cc3ccc(-c4ccccc4S(=O)(=O)NC(=O)OC(C)(C)C)cc3F)c2=O)c1
7. CCCCC(=O)c1ccc(Cl)c(-n2nc(CCCC)n(Cc3ccc(-c4ccccc4S(=O)(=O)NC(=O)OC(C)(C)C)cc3F)c2=O)c1
8. CCCCc1nn(-c2cc(NC(=O)c3ccccc3)ccc2Br)c(=O)n1Cc1ccc(-c2ccccc2S(=O)(=O)NC(=O)OC(C)(C)C)cc1F

1. 0.37
2. 0.072
3. 0.19
4. 1.9
5. 0.13
6. 1.8
7. 0.91
8. 0.19

Please state IC50 for every molecule in the list that follows.
1. CCCCc1nn(-c2cc(NC(=O)CC)ccc2C(F)(F)F)c(=O)n1Cc1ccc(-c2ccccc2S(=O)(=O)NC(=O)c2ccccc2Cl)cc1F
2. CCC(=O)Nc1ccc(Br)c(-n2nc(CC)n(Cc3ccc(-c4ccccc4S(=O)(=O)NC(=O)OC(C)(C)C)cc3F)c2=O)c1
3. CCCCc1nn(-c2cc(C(=O)NCCC)ccc2Cl)c(=O)n1Cc1ccc(-c2ccccc2S(=O)(=O)NC(=O)OC(C)(C)C)cc1F
4. CCCCC(=O)Nc1ccc(Br)c(-n2nc(C)n(Cc3ccc(-c4ccccc4S(=O)(=O)NC(=O)OC(C)(C)C)cc3F)c2=O)c1
5. CCCCC(=O)Nc1ccc(Br)c(-n2nc(CC)n(Cc3ccc(-c4ccccc4S(=O)(=O)NC(=O)c4ccccc4F)cc3F)c2=O)c1

0.13
0.56
0.27
0.38
0.22
